Test: Pharmacokinetic study of paclitaxel with oral type I POPs
Assay type: in vivo, Sprague–Dawley rats
Details: Sprague-Dawley, rat, plasma, iv, 6 mg/kg
observed_property: half-life (h)
Reply numerically in h, unit not repeated.

Task: Query: half-life; subject: CC(=O)O[C@H]1C(=O)[C@@]2(C)[C@H]([C@H](OC(=O)c3ccccc3)[C@]3(O)C[C@H](OC(=O)[C@H](O)[C@@H](NC(=O)c4ccccc4)c4ccccc4)C(C)=C1C3(C)C)[C@]1(OC(C)=O)CO[C@@H]1C[C@@H]2O [Paclitaxel, paclitaxel]
Result: 3.2

====

Assay: Pharmacokinetic study of paclitaxel with oral type I POPs
Format: in vivo, Sprague–Dawley rats
Details: Sprague-Dawley, rat, plasma, iv, 6 mg/kg
observed_property: clearance (mL/min/kg)
Your answer is read as mL/min/kg, so omit the unit and give the number.

Task: Quick one: clearance for `CC(=O)O[C@H]1C(=O)[C@@]2(C)[C@H]([C@H](OC(=O)c3ccccc3)[C@]3(O)C[C@H](OC(=O)[C@H](O)[C@@H](NC(=O)c4ccccc4)c4ccccc4)C(C)=C1C3(C)C)[C@]1(OC(C)=O)CO[C@@H]1C[C@@H]2O` ?
Result: 91.7
